Study System: Parathyroid hormone/parathyroid hormone-related peptide receptor (Homo sapiens)
Assay Text: qHTS for PTHR1 Agonists: Optimization Screen against the NCGC LOPAC library (AID 1347079);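 note: GloSensor cAMP luminescence in HEK-293 GP2 cells expressing human PTHR1 with IBMX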
Condition Description: HEK293 GP2 PTHR1 GloSensor cAMP luminescence, 1 h; series mostly up to 57.1 µM
Calls of active or inactive are those of the source. Calls come from the whole dose curve; as a rule, active = well fitted activation curve with a large enough effect; inconclusive = small, poorly fitted or top-dose-only effect; inactive = no such curve, though single readings can be large or run the other way.
Measurement Name: outcome

Give me measured outcome, please, for this compound: NC(=O)c1ccc2[nH]ccc2c1
inactive

Give me measured outcome, please, for this compound: CC(=O)[C@H]1CC[C@H]2[C@@H]3CCC4=CC(=O)CC[C@]4(C)[C@H]3CC[C@]12C
inactive

Give me measured outcome, please, for this compound: CC1=C(C(=O)O)N2C(=O)[C@@H](NC(=O)C(N)c3ccccc3)[C@H]2SC1 (stereo partly drawn)
inactive

----------
System: PA-1
Assay Text: Primary qHTS to identify gynecologic anti-cancer compounds using libraries of approved drugs and bioactive compounds (AID 1345084); note: nearly all actives have a fitted effect of over 55% in size
Condition Description: Gynecologic cancer cell panel viability, ATPlite luminescence, 48 h; series mostly up to 57.5 µM
Results filed as inconclusive are left out. Active and inactive are the calls of the source. Calls come from the whole dose curve; as a rule, active = well fitted cell-killing curve with a large enough effect; inconclusive = small, poorly fitted or top-dose-only effect, or effect the other way; inactive = flat fitted curve, though single readings scatter.
Field 'call' accepts Yes = active, No = inactive

Please review the following examples before continuing.
Record lookup: outcome of this test for COC(=O)Nc1nc2ccc(Sc3ccccc3)cc2[nH]1 ?
Yes

Record lookup: outcome of this test for COc1c(N2CCNC(C)C2)c(F)cc2c(=O)c(C(=O)O)cn(C3CC3)c12 (stereo unspecified) ?
No

Record lookup: outcome of this test for COc1ccccc1OCC(O)COC(N)=O (stereo unspecified) ?
No

Record lookup: outcome of this test for CCn1cc(C(=O)O)c(=O)c2cc(F)c(N3CCNCC3)cc21 ?
No

Record lookup: outcome of this test for COc1cccc(N(C)C(=S)Oc2ccc3c(c2)CCCC3)n1 ?
No

Record lookup: outcome of this test for O=C(O)c1ccc(-n2nc(-c3ccccc3O)nc2-c2ccccc2O)cc1 ?
Yes

Record lookup: outcome of this test for CCCN[C@H]1CCc2nc(N)sc2C1 ?
No

Record lookup: outcome of this test for Cc1nnc(C(=O)NC(C)(C)c2nc(C(=O)NCc3ccc(F)cc3)c(O)c(=O)n2C)o1 ?
No

Record lookup: outcome of this test for CC1(C)[C@H](C(=O)O)N2C(=O)C[C@H]2S1(=O)=O ?
No

Record lookup: outcome of this test for CCC(=O)O[C@]1(C(=O)SCF)[C@H](C)C[C@H]2[C@@H]3C[C@H](F)C4=CC(=O)C=C[C@]4(C)[C@@]3(F)[C@@H](O)C[C@@]21C ?
No

Now consider the entry below.
Record lookup: outcome of this test for CCc1cc(C(N)=S)ccn1 ?
No

----------
Test system: Zika virus NS2B-NS3 protease (unlinked)
Assay Text: Optimization of GU AMC qHTS for Zika virus inhibitors: Unlinked NS2B-NS3 protease assay (AID 1347151); note: nearly all actives have a fitted effect of over 80% in size; note: potency is the fitted concentration of half-maximal effect
Condition Description: recombinant ZIKV NS2B-NS3 protease, fluorogenic AMC substrate; series mostly up to 52.5 µM
Inconclusive results are not listed. Activity calls are given as the source filed them. Calls follow the shape of the dose curve; as a rule, active = well fitted inhibition curve with a large enough effect; inconclusive = small, poorly fitted or top-dose-only effect; inactive = no such curve, though single readings can be large or run the other way.
Measurement Name: Potency

Worked examples follow.
Give me measured Potency, please, for this compound: O=C(O)C1CCCN(CCC=C(c2ccccc2)c2ccccc2)C1 (stereo unspecified)
inactive

Give me measured Potency, please, for this compound: CNS(=O)(=O)CCc1ccc2[nH]cc(C3CCN(C)CC3)c2c1
inactive

Give me measured Potency, please, for this compound: CCN1CCCC1CNC(=O)c1cc(S(N)(=O)=O)ccc1OC (stereo unspecified)
inactive

Give me measured Potency, please, for this compound: OCc1ccc(-c2nn(Cc3ccccc3)c3ccccc23)o1
23.8 µM (active)

Next:
Give me measured Potency, please, for this compound: Cc1ccc(S(=O)(=O)N[C@@H](Cc2ccccc2)C(=O)CCl)cc1
inactive

Give me measured Potency, please, for this compound: CC1CC2C3CCC4=CC(=O)C=C[C@]4(C)[C@@]3(F)[C@@H](O)C[C@]2(C)[C@@]1(O)C(=O)CO (stereo partly specified)
inactive

Give me measured Potency, please, for this compound: CCN(CC)CCn1c(=O)c(Cc2ccc(OC)cc2)nc2ccccc21
inactive

Give me measured Potency, please, for this compound: Nc1nc(=S)c2[nH]cnc2[nH]1
inactive

Give me measured Potency, please, for this compound: CCCCS(=N)(=O)CCC(N)C(=O)O (stereo unspecified)
inactive

Give me measured Potency, please, for this compound: CC(=O)[C@H]1CC[C@H]2[C@@H]3CCC4=CC(=O)CC[C@]4(C)[C@H]3CC[C@]12C
inactive

Give me measured Potency, please, for this compound: Nc1nc(N)c2nc(CNc3ccc(C(=O)NC(CCC(=O)O)C(=O)O)cc3)cnc2n1 (stereo unspecified)
26.7 µM (active)

----------
Tested on: CP266
Assay Text: qHTS profiling for inhibitors of Plasmodium falciparum proliferation (AID 504749); note: nearly all actives have a fitted effect of over 60% in size
Condition Description: P. falciparum in erythrocytes, SYBR Green DNA, 72 h; series mostly up to 28.7 µM
Method: NIH National Institute of Allergy and Infectious Diseases [NIAID] NIH Chemical Genomics Center [NCGC] […] Because mature erythrocytes lack DNA, only Plasmodium-derived DNA is detected. NCGC Assay Protocol Summary: The SYBR Green viability assay was adapted from a method described previously (Plouffe et al., 2008). […] The following morning, fluorescence intensity at 485(14) nm excitation and 535(25) nm emission wavelengths was measured on an EnVision (Perkin Elmer) plate reader. […]
Records with an inconclusive call do not appear. Activity calls are given as the source filed them. The call rests on the fitted dose curve; in most records, active means well fitted inhibition curve with a large enough effect; inconclusive means small, poorly fitted or top-dose-only effect; inactive means flat fitted curve, though single readings scatter.
Field 'call' accepts active, inactive

Record lookup: outcome of this test for C#CCN[C@@H]1CCc2ccccc21 ?
inactive

Next:
Record lookup: outcome of this test for N=C(N)c1ccc(OCCCCCOc2ccc(C(=N)N)cc2)cc1 ?
active

----------
Assay Text: qHTS Screen of the MIPE 4.0 Collection Against Ewings Sarcoma (TC32) (AID 1259256); note: nearly all actives have a fitted effect of over 45% in size
Condition Description: TC32 Ewing sarcoma viability, CellTiter-Glo, 48 h; series mostly up to 45.8 µM
Experimental: There is a large unmet medical need for treatments for Ewing sarcoma, a pediatric sarcoma. […] Using the NCATS developed oncology compound library called the Mechanism of Interrogation Plate (MIPE), four Ewing sarcoma cell lines were evaluated (TC32, TC71, RDES, EW8). Compounds, in a 12-point titration series, were incubated with cells for 48 hours and the read out was cell viability (CellTiter-Glo from Promega). […]
Inconclusive results are not listed. The source made the active and inactive calls. Calls come from the whole dose curve; as a rule, active = well fitted inhibition curve with a large enough effect; inconclusive = small, poorly fitted or top-dose-only effect; inactive = no such curve, though single readings can be large or run the other way.
Field 'call' accepts active, inactive

Record lookup: outcome of this test for Nc1nc(N)c2nc(CNc3ccc(C(=O)NC(CCC(=O)O)C(=O)O)cc3)cnc2n1 (stereo not given) ?
active

Record lookup: outcome of this test for C1CCC(C(CC2CCCCN2)C2CCCCC2)CC1 (stereo not given) ?
active

Record lookup: outcome of this test for Cc1cccc(Nc2ccncc2S(=O)(=O)NC(=O)NC(C)C)c1 ?
inactive

Next:
Record lookup: outcome of this test for CCn1cc(C(=O)O)c(=O)c2cc(F)c(N3CCN(C)CC3)cc21 ?
inactive

Record lookup: outcome of this test for C[C@]12C=CC(=O)C=C1CC[C@@H]1[C@@H]2C(=O)C[C@@]2(C)[C@H]1CC[C@]2(O)C(=O)CO ?
inactive

Record lookup: outcome of this test for CCN(CC)CCn1c(=O)c(Cc2ccc(OC)cc2)nc2ccccc21 ?
inactive

Record lookup: outcome of this test for CCN(CC)CC#CCOC(=O)C(O)(c1ccccc1)C1CCCCC1 (stereo not given) ?
inactive

Record lookup: outcome of this test for CNS(=O)(=O)Cc1ccc2[nH]cc(CCN(C)C)c2c1 ?
inactive

Record lookup: outcome of this test for CC(C)(Sc1cc(C(C)(C)C)c(O)c(C(C)(C)C)c1)Sc1cc(C(C)(C)C)c(O)c(C(C)(C)C)c1 ?
active

Record lookup: outcome of this test for N[C@@H](Cc1ccc(O)c(O)c1)C(=O)O ?
inactive

----------
Assay Text: qHTS of pediatric cancer cell lines to identify multiple opportunities for drug repurposing: Primary screen for SJ-GBM2 cells (AID 1347091); note: potency is the fitted concentration of half-maximal effect
Condition Description: SJ-GBM2 viability, CellTiter-Glo luminescence, 48 h; series mostly up to 46 µM
Inconclusive results are not listed. The source made the active and inactive calls. The call rests on the fitted dose curve; in most records, active means well fitted cell-killing curve with a large enough effect; inconclusive means small, poorly fitted or top-dose-only effect; inactive means no such curve, though single readings can be large or run the other way.
Measurement Name: Potency

Worked examples follow.
Give me measured Potency, please, for this compound: NC(=O)c1ccc2[nH]ccc2c1
inactive

Give me measured Potency, please, for this compound: O=C(O)CSCC(=O)NC1CCSC1=O (configuration not stated)
inactive

Give me measured Potency, please, for this compound: NC(=O)c1cccc(N)c1
inactive

Give me measured Potency, please, for this compound: CN1CCCC(n2nc(Cc3ccc(Cl)cc3)c3ccccc3c2=O)CC1 (configuration not stated)
1.32 µM (active)

Give me measured Potency, please, for this compound: CNC1CCCN(c2c(F)cc3c(=O)c(C(=O)O)cn(C4CC4)c3c2OC)C1 (configuration not stated)
inactive

Next:
Give me measured Potency, please, for this compound: Nc1[nH]c(=O)ncc1F
inactive

Give me measured Potency, please, for this compound: Cc1ncc([N+](=O)[O-])n1CCO
inactive

Give me measured Potency, please, for this compound: CC(C)OC(=O)C(C(=O)OC(C)C)=C1SC=CS1
inactive

Taken from PubChem BioAssay (NCATS).
